Taken from ChEMBL document CHEMBL1134575.

Molecular target: Farnesyltransferase (Saccharomyces cerevisiae S288c, UniProt P22007+P29703)
Sequence (P29703 whole entry): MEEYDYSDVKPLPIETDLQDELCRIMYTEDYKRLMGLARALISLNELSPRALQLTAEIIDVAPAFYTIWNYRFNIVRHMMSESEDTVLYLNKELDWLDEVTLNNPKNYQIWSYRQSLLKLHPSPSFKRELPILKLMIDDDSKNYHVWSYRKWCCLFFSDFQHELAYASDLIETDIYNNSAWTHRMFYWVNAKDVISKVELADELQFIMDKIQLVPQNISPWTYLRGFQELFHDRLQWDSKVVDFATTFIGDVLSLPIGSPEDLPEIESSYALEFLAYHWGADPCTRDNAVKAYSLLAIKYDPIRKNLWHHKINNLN
Sequence (P22007 whole entry): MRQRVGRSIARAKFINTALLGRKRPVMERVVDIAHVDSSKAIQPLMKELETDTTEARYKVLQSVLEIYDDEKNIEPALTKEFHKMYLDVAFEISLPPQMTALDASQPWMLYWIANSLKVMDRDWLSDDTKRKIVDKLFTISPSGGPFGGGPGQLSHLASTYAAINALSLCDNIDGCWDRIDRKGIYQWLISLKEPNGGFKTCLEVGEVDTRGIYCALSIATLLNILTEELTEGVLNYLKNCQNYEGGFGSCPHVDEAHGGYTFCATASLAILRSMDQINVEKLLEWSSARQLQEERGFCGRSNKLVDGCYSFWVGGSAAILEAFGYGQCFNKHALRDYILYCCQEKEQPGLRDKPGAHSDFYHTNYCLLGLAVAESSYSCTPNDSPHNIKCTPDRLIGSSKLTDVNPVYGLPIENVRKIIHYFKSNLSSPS
Experiment: Inhibitory activity against farnesyltransferase.
observable: IC50 (nM)
# output: bare number, implied unit nM

1) N[C@@H](CS)C(=O)Nc1ccc(NC(=O)Cc2ccc(Cl)cc2)c(C(=O)c2ccccc2)c1 ... 105
2) N[C@@H](CS)C(=O)Nc1ccc(NC(=O)Cc2ccc(Cl)cc2Cl)c(C(=O)c2ccccc2)c1 ... 120
3) N[C@@H](CS)C(=O)Nc1ccc(NC(=O)CCCC(=O)O)c(C(=O)c2ccccc2)c1 ... 550
4) N[C@@H](CS)C(=O)Nc1ccc(NC(=O)C(c2ccccc2)c2ccccc2)c(C(=O)c2ccccc2)c1 ... 36
5) COc1ccc(CC(=O)Nc2ccc(NC(=O)[C@@H](N)CS)cc2C(=O)c2ccccc2)cc1 ... 545
6) N[C@@H](CS)C(=O)Nc1ccc(NC(=O)CCC(=O)O)c(C(=O)c2ccccc2)c1 ... 700
7) COC(=O)CCCC(=O)Nc1ccc(NC(=O)[C@@H](N)CS)cc1C(=O)c1ccccc1 ... 2400
8) N[C@@H](CS)C(=O)Nc1ccc(NC(=O)Cc2ccc3ccccc3c2)c(C(=O)c2ccccc2)c1 ... 460

The record that follows has no IC50 shown yet.
Ask | What value of IC50 has been reported for the following molecule? "N[C@@H](CS)C(=O)Nc1ccc(NC(=O)Cc2ccc(Br)cc2)c(C(=O)c2ccccc2)c1"
Reply | 76

* * *

Target: Farnesyltransferase (Saccharomyces cerevisiae S288c, UniProt P22007+P29703)
Experiment: Inhibitory activity against farnesyltransferase.
observable: IC50 (nM)
# output: bare number, implied unit nM

1) COC(=O)CCC(=O)Nc1ccc(NC(=O)[C@@H](N)CS)cc1C(=O)c1ccccc1 ... 1800
2) N[C@@H](CS)C(=O)Nc1ccc(NC(=O)Cc2cc(Cl)cc(Cl)c2)c(C(=O)c2ccccc2)c1 ... 535
3) Cc1cccc(CC(=O)Nc2ccc(NC(=O)[C@@H](N)CS)cc2C(=O)c2ccccc2)c1 ... 540
4) N[C@@H](CS)C(=O)Nc1ccc(NS(=O)(=O)Cc2ccccc2)c(C(=O)c2ccccc2)c1 ... 85
5) N[C@@H](CS)C(=O)Nc1ccc(NC(=O)Cc2cccc3ccccc23)c(C(=O)c2ccccc2)c1 ... 380

The record that follows has no IC50 shown yet.
Ask | What value of IC50 has been reported for the following molecule? CC(CC(=O)Nc1ccc(NC(=O)[C@@H](N)CS)cc1C(=O)c1ccccc1)CC(C)(C)C (stereo partly specified)
Reply | 8600
